# target system: hERG (KCNH2) (Homo sapiens, UniProt Q12809)
# Sequence (Q12809 whole entry): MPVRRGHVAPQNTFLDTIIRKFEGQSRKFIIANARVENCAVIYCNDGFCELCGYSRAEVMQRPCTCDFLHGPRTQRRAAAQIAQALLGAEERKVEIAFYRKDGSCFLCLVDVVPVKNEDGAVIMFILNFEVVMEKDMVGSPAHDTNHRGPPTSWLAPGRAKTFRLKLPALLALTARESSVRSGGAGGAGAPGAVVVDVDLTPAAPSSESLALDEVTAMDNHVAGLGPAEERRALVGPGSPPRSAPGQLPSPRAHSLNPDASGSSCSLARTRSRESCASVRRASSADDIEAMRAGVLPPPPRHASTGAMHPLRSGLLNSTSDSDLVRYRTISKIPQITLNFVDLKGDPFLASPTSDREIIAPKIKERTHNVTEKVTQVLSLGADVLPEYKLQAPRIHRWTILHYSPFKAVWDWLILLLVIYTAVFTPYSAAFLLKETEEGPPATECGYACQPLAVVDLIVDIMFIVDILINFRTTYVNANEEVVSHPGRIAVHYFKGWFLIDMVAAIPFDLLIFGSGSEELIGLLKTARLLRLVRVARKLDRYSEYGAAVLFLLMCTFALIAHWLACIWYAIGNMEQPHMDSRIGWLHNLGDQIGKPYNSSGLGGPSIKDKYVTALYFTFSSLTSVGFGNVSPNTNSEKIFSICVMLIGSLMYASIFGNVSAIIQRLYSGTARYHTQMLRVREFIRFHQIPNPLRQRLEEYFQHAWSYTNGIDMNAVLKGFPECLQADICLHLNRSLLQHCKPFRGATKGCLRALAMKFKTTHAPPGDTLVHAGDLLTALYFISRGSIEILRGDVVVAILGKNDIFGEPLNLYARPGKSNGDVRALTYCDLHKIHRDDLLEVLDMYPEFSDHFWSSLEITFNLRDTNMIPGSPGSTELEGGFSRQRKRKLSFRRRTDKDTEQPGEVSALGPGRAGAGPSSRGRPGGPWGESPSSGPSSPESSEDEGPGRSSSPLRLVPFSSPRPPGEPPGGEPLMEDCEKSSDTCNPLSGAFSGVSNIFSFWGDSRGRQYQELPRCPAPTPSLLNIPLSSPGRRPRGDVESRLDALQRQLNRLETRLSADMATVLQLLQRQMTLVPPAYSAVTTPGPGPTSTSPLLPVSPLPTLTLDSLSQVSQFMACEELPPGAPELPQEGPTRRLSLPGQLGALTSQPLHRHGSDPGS
# experimental details: Displacement of tracer red from human ERG at 10 uM by fluorescence polarization assay relative to control
# test parameters: probe tracer red
If the reported inhibition at 10 µM equals or exceeds 40%, assign Yes. If not, assign No.

Worked cases, answers included:
COc1ccc(N(Cc2ccc(Cl)cc2)C(=S)NCCCn2cncc2C)cc1OC Yes
COc1ccc(N(Cc2ccc(F)cc2)C(=S)NCCCn2cncc2C)cc1OC Yes
COc1ccc(N(Cc2ccncc2)C(=S)NCCCn2cncc2C)cc1OC No
COc1ccc(N(Cc2ccccc2)C(=S)NCCCn2cncc2C)cc1OC Yes
COc1ccc(N(Cc2cccc(Cl)c2)C(=S)NCCCn2cncc2C)cc1OC Yes

Turning to the following molecule.
Please tell me: is the molecule COc1ccc(N(C(=O)NCCCn2cncc2C)C2CCCCC2)cc1OC at or over 40% in terms of inhibition at 10 µM?
No

* * *

# experimental details: Cytotoxicity against mouse HT22 cells assessed as cell viability at 10 uM measured after 18 hrs by MTT assay relative to control
# Format: cell-based, HT-22
# test parameters: read-out: Activity
reported endpoint: viability at 18 h, 10 µM (%)
Reply with just the number (in %).

Solved cases (2 shown):
COc1ccc(N(C(=S)NCCCn2cncc2C)C2CCC2)cc1OC 86.7
COc1ccc(N(Cc2ccc(Cl)cc2)C(=S)NCCCn2cncc2C)cc1OC 100

Give the measured viability at 18 h, 10 µM of COc1ccc(N(Cc2cccc(F)c2)C(=S)NCCCn2cncc2C)cc1OC .
91.7

Now try COc1ccc(N(Cc2ccncc2)C(=S)NCCCn2cncc2C)cc1OC .
100

Now try COc1ccc(N(Cc2ccccc2)C(=S)NCCCn2cncc2C)cc1OC .
80.4

Same question, COc1ccc(N(CC(C)C)C(=O)NCCCn2cncc2C)cc1OC this time
100

How about COc1ccc(N(CC(C)C)C(=S)NCCCn2cncc2C)cc1OC ?
100

What do you have for COc1ccc(N(C(=O)NCCCn2cncc2C)C2CCCCC2)cc1OC ?
88.6

Would you mind doing COc1ccc(N(CC2CCCC2)C(=O)NCCCn2cncc2C)cc1OC as well?
100

Moving on to the next compound: CCN(C(=S)NCCCn1cncc1C)c1ccc(OC)c(OC)c1
88.4

Proceed to COc1ccc(N(Cc2cccnc2)C(=S)NCCCn2cncc2C)cc1OC
89.3

Cool, now COc1ccc(N(CCCCc2ccnc(N)c2)C(=O)NCCCn2cncc2C)cc1OC
100

Thanks! And COc1ccc(N(C(=S)NCCCn2cncc2C)C2CCCCC2)cc1OC ?
78.3

Then this compound: COc1ccc(N(CC2CCCC2)C(=S)NCCCn2cncc2C)cc1OC
100

Field entry: COc1ccc(N(Cc2ccc(F)cc2)C(=O)NCCCn2cncc2C)cc1OC
90.7

Queued: COc1ccc(N(Cc2ccc(F)cc2)C(=S)NCCCn2cncc2C)cc1OC
100

Queued: COc1ccc(N(Cc2cccnc2)C(=O)NCCCn2cncc2C)cc1OC
100

What would you report for COc1ccc(N(C(=S)NCCCn2cncc2C)C2CCCC2)cc1OC ?
81.7

* * *

A collection of compounds and their measured remaining at 0.5 h
# experimental details: Stability in human liver microsomes assessed as parent compound remaining measured after 30 mins
# Assay type: ADME, Microsome
# test parameters: read-out: Stability
Please don't drop the unit; write it after the number.

COc1ccc(N(CCCCc2ccnc(N)c2)C(=O)NCCCn2cncc2C)cc1OC 43.1%

Next, consider the following compound.
Requested read-out: remaining at 0.5 h. Entry: COc1ccc(N(Cc2cccnc2)C(=O)NCCCn2cncc2C)cc1OC
44%

Origin of the recorded values: ChEMBL document CHEMBL4373720
